Where these numbers come from: ChEMBL document CHEMBL4840340

- target_or_test_system: UniProtKB P18031
- Sequence (whole entry): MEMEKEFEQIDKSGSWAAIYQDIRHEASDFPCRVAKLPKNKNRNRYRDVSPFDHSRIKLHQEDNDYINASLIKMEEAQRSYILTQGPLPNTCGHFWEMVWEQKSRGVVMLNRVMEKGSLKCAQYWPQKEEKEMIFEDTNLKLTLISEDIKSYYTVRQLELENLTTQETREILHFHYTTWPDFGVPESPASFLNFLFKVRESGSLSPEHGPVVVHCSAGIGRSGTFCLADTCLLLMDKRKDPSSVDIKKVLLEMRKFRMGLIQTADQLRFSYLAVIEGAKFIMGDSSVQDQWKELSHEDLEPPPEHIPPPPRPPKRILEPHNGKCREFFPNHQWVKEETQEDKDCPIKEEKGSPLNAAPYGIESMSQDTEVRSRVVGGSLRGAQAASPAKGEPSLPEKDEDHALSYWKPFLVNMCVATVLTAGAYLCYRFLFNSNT
- protocol_details: Inhibition of PTP1B (unknown origin) assessed as inhibition constant for uncompetitive inhibition using pNPP as substrate by spectrophotometric analysis
measurement_kind: alphaKi (µM)
One number for each entry, in µM.

O=C(CSc1nc2cc(Oc3cccc4ccccc34)ccc2[nH]1)Nc1ccccc1C(=O)O | 60.6
O=C(CSc1nc2cc(Oc3cccc4ccccc34)ccc2[nH]1)Nc1ccc(C(=O)O)cc1 | 124

Look at each compound and report its alphaKi.
1. O=C(CSc1nc2cc(Oc3ccc4ccccc4c3)ccc2[nH]1)Nc1ccc(C(=O)O)cc1
2. O=C(CSc1nc2cc(Oc3ccc4ccccc4c3)c(Cl)cc2[nH]1)Nc1ccc(C(=O)O)cc1

**A:**
1. 113
2. 37.8
